Values compiled from patent US10138222B2.

pIC50: −log10 of the molar value.
Heads up, these compounds all have pIC50 values measured for RIPK2 (Homo sapiens (Human), UniProt O43353).
Measured attribute: pIC50

Answered examples (2):
Compound	Measured target	pIC50
Cc1ccc(C(=O)NC2CC2)cc1-c1cnn(-c2cncc(NC(=O)NC3CCOC3)c2)c1 (stereo not drawn) [Example 142]	RIPK2 (Homo sapiens (Human), UniProt O43353)	8.49
Cc1ccc(C(=O)NC2CC2)cc1-c1cnn(-c2cncc(NCC3CC3)c2)c1 [Example 99]	RIPK2 (Homo sapiens (Human), UniProt O43353)	8.59

[a] Cc1ccc(C(=O)NC2CC2)cc1-c1cnn(-c2cncc(NC(=O)NC3CCC3)c2)c1 [Example 109]
[b] CC(=O)NC(C)(C)c1cncc(-n2cc(-c3cc(C(=O)NC4CC4)ccc3C)cn2)c1 [Example 50]
// pick min by pIC50: a , b Let me know the label of the one you choose. b

###

# Measured target: RIPK2 (Homo sapiens (Human), UniProt O43353)
# Sequence (O43353 whole entry): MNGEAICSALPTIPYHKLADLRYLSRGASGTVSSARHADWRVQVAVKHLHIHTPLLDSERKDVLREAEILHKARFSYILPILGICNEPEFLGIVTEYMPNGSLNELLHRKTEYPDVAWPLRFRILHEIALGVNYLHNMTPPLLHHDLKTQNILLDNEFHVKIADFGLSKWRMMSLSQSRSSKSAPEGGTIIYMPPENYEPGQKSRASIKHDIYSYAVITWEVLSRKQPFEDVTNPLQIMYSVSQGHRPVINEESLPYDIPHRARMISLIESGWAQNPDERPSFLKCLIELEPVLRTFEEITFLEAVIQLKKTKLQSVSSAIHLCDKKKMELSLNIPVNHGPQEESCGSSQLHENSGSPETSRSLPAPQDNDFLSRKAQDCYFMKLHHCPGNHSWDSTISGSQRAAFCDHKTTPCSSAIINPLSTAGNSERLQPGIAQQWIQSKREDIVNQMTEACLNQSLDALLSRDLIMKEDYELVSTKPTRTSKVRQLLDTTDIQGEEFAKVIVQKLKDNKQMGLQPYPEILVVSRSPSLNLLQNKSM
# Protocol details: RIPK2 inhibition, ADP-Glo Kinase Assay
# Type: biochemical
# Particulars: 8His-RIPK2 FL enzyme 8 nM, ATP 5 μM, 15 minutes pre-incubation, 60 minutes at 37° C., luminescence
pIC50: −log10 of the molar value.
Measured attribute: pIC50

Compound	Measured target	pIC50
Cc1ccc(C(=O)NC2CC2)cc1-c1cnn(-c2cncc(N3CCN(C)CC3)c2)c1 [Example 100]	RIPK2 (Homo sapiens (Human), UniProt O43353)	7.54

[P] Cc1ccc(C(=O)NC2CC2)cc1-c1cnn(-c2cncc(NS(C)(=O)=O)c2)c1 [Example 122]
[Q] Cc1ccc(C(=O)NC2CC2)cc1-c1cnn(-c2cncc(CC#N)c2)c1 [Example 52]
// pick min by pIC50: P , Q Let me know the label of the one you choose. Q

[P] Cc1ccc(C(=O)NC2CC2)cc1-c1cnn(-c2cncc(NC3CCOCC3)c2)c1 [Example 78]
[Q] COc1cncc(-n2cc(-c3cc(C(=O)NC4CC4)ccc3Cl)cn2)c1 [Example 27]
[R] Cc1ccc(C(=O)NC2CC2)cc1-c1cnn(-c2cncc(N3CCOCC3)c2)c1 [Example 98]
[S] Cc1ccc(C(=O)NC2CC2)cc1-c1cnn(-c2cncc(NC(=O)C(C)C)c2)c1 [Example 113]
[T] O=C(NC1CC1)c1ccc(Cl)c(-c2cnn(-c3cccnc3)c2)c1 [Example 31]
Sort (5 compounds) by pIC50: min first. Provide your answer as the labels ordered per the instruction. T, Q, R, S, P

[A] Cc1ccc(C(=O)NC2CC2)cc1-c1cnn(-c2cncc(NC3CCN(CC4CCOC4)CC3)c2)c1 (stereo not drawn) [Example 154]
[B] Cc1ccc(C(=O)NC2CC2)cc1-c1cnn(-c2cncc(OCc3ccccc3)c2)c1 [Example 80]
Which item exceeds the other in pIC50, A or B ? Let me know the label of the one you choose. A

###

pIC50: −log10 of the molar value.
Heads up, these molecules all have pIC50 values measured for RIPK2 (Homo sapiens (Human), UniProt O43353).
Measured attribute: pIC50

Molecule	Test result
CNC(=O)Nc1cncc(-n2cc(-c3cc(C(=O)NC4CC4)ccc3C)cn2)c1	8.48
COC1CCC(Nc2cncc(-n3cc(-c4cc(C(=O)NC5CC5)ccc4C)cn3)c2)C1 (centres unmarked)	8.64
Cc1ccc(C(=O)NC2CC2)cc1-c1cnn(-c2cncc(OCC3CC3)c2)c1	8.21
COCCN1CCC(Nc2cncc(-n3cc(-c4cc(C(=O)NC5CC5)c(F)cc4C)cn3)c2)CC1	9.00
Cc1cc(F)c(C(=O)NC2CC2)cc1-c1cnn(-c2cncc(NC3CCN(CCF)CC3)c2)c1	8.82
Cc1ccc(C(=O)NC2CC2)cc1-c1cnn(-c2cncc(OC3CCC(C#N)C3)c2)c1 (centres unmarked)	8.19
COc1cncc(-n2cnc(-c3cc(C(=O)NC4CC4)c(F)cc3Cl)c2)c1	8.13

[A] CC(=O)N1CCC(Oc2cncc(-n3cc(-c4cc(C(=O)NC5CC5)ccc4C)cn3)c2)CC1
[B] Cc1ccc(C(=O)NC2CC2)cc1-c1cnn(-c2cncc(NC3CCNCC3)c2)c1
[C] CC(=O)Nc1cncc(-n2cc(-c3cc(C(=O)NC4CC4)ccc3C)cn2)c1
[D] Cc1ccc(C(=O)NC2CC2)cc1-c1cnn(-c2cncc(C3(O)CCOC3)c2)c1 (centres unmarked)
Sort (4 molecules) by pIC50: min first. Provide your answer as the labels ordered per the instruction. D, A, C, B

###

Heads up, these molecules all have IC50 values measured for RIPK2 (Homo sapiens (Human), UniProt O43353).
Measured attribute: IC50 (nM)

Answered examples (6):
Molecule	Measured target	Measured attribute	Unit	Test result
Cc1ccc(C(=O)NC2CC2)cc1-c1cnn(-c2cncc(CN3CCOCC3=O)c2)c1	RIPK2 (Homo sapiens (Human), UniProt O43353)	IC50	nM	120
Cc1ccc(C(=O)NC2CC2)cc1-c1cnn(-c2cncc(C(=O)O)c2)c1	RIPK2 (Homo sapiens (Human), UniProt O43353)	IC50	nM	33
Cc1ccc(C(=O)NC2CC2)cc1-c1cnn(-c2cncc(OC3CC(CO)(CO)C3)c2)c1	RIPK2 (Homo sapiens (Human), UniProt O43353)	IC50	nM	4.2
CCOc1cncc(-n2cc(-c3cc(C(=O)NC4CC4)ccc3C)cn2)c1	RIPK2 (Homo sapiens (Human), UniProt O43353)	IC50	nM	8.8
Cc1ccc(C(=O)NC2CC2)cc1-c1cnn(-c2cncc(NC3CCN(C(C)CCO)CC3)c2)c1 (centres unmarked)	RIPK2 (Homo sapiens (Human), UniProt O43353)	IC50	nM	1.6
Cc1ccc(C(=O)NC2CC2)cc1-c1cn(-c2cncc(NC3CCN(C4COC4)CC3)c2)cn1	RIPK2 (Homo sapiens (Human), UniProt O43353)	IC50	nM	1.4

[a] Cc1ccc(C(=O)NC2CC2)cc1-c1cnn(-c2cncc(NC3CCN(C4CCC4)CC3)c2)c1
[b] Cc1ccc(C(=O)NC2CC2)cc1-c1cnn(-c2cncc(C(F)(F)F)c2)c1
[c] Cc1ccc(C(=O)NC2CC2)cc1-c1cnn(-c2cncc(O)c2)c1
[d] CCO[C@H]1COC[C@@H]1Nc1cncc(-n2cc(-c3cc(C(=O)NC4CC4)ccc3C)cn2)c1
Sort (4 molecules) by IC50: min first. Provide your answer as the labels ordered per the instruction. a, c, d, b
